molecular target: TgGSK3 (Toxoplasma gondii); construct: kinase domain, aa 46-385 (orthorhombic crystal) and aa 20/21-385 (monoclinic crystal); assay: X-ray co-crystal structure ([…] Å and […] Å); microscale thermophoresis; Kinase-Glo inhibition (IC50 […])
readout type: pKd
In simple prose, pKd is minus the logarithm base ten of a concentration in moles per litre.

In: Read off the recorded pKd for O=C1NC(=O)C(c2cnc3ccccn23)=C1c1cn2c3c(cc(F)cc13)CN(C(=O)N1CCCCC1)CC2
Out: 7.47
